- Study System: UniProt P30307
- Sequence (P30307 whole entry): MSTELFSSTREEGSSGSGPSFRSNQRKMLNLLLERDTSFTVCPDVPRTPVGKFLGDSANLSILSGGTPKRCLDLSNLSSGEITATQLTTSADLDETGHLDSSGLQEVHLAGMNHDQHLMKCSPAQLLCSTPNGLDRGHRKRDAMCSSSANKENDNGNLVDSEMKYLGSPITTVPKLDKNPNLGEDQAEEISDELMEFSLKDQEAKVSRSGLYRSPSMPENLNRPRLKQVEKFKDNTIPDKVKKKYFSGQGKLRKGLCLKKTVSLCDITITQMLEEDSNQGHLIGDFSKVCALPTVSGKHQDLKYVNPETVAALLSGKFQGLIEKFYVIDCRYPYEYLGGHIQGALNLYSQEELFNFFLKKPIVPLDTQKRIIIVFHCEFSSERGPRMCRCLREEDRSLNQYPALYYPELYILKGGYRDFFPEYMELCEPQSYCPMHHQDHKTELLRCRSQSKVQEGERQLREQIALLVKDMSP
- Test: Inhibition of full-length recombinant human CDC25C incubated for 5 to 8 mins by fluorescence based assay

[
  {
    "Compound": "CC(NC1=C(Cl)C(=O)c2cccnc2C1=O)c1cn(Cc2ccc(CO)cc2)nn1 (stereo unspecified)",
    "IC50 / nM": 60
  }
]

====

- Study System: Replicase polyprotein 1ab (Severe acute respiratory syndrome coronavirus 2)
pIC50: −log10 of the molar value.

[
  {
    "Structure As Smiles": "CC1=NN(c2ccc(Cl)cc2)C(=O)/C1=C\\c1ccc(OCc2cn(CC(=O)NCc3ccc(C(=O)O)cc3)nn2)cc1",
    "pIC50": 5.50
  }
]

====

Items are presented alongside their recorded pIC50.
- Test: Inhibition of Influenza A virus H1N1 neuraminidase
pIC50: −log10 of the molar value.

[
  {
    "Compound": "COC(=O)[C@@H](C)NP(=O)(OCC1OC(n2cc(CN3CCC(=O)NC3=O)nn2)C(O)C1O)Oc1ccccc1 (some centres not stated)",
    "pIC50": 4.60
  },
  {
    "Compound": "CC(=O)O[C@H]1[C@H](OCc2cn(CC3=NCCS3)nn2)OC[C@@H](OC(C)=O)[C@H]1OC(C)=O",
    "pIC50": 5.79
  }
]

====

- Test: Cytotoxicity against African green monkey Vero E6 cells assessed as reduction in cell viability measured after 72 hrs by MTS assay

[
  {
    "Structure As Smiles": "CC1=NN(c2ccc(Cl)cc2)C(=O)/C1=C\\c1ccc(OCc2cn(CC(=O)NCc3ccc(C(=O)O)cc3)nn2)cc1",
    "IC50 at 72 h [µM]": 22.1
  }
]

====

- Study System: Cholinesterase (Equus caballus, UniProt P81908)
- Sequence (P81908 whole entry): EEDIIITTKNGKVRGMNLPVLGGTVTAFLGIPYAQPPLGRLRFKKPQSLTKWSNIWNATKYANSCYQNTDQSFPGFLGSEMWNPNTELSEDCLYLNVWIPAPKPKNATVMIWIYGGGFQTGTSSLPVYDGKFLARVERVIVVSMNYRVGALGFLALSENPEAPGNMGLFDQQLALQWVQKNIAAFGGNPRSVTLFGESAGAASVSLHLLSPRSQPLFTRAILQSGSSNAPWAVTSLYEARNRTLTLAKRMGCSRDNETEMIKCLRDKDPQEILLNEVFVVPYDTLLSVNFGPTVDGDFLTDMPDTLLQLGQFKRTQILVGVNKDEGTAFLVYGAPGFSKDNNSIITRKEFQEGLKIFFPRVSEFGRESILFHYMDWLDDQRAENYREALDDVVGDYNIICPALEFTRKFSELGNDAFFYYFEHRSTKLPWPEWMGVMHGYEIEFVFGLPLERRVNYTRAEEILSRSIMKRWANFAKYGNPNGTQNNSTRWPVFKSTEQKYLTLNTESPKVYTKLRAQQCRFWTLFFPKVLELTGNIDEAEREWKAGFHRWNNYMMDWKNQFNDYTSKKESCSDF
- Test: Inhibition of equine serum BuChE using butyrylthiocholine chloride as substrate by Ellman's method
Parameter Measured: IC50 (µM)

[
  {
    "Molecule": "O=C(CCCCC1CCSS1)NCc1cn(CCCCOc2ccc3c(c2)OCCC3=O)nn1 (stereo unspecified)",
    "Scale Unit": "µM",
    "Meas Value": 7.55
  }
]

====

# key: entry, value: IC50
- Study System: Human immunodeficiency virus type 1 protease (Human immunodeficiency virus 1)
Parameter Measured: IC50 (nM)

[
  {
    "Compound": "COc1ccc(S(=O)(=O)N(CC(C)C)C[C@@H](O)C(Cc2ccccc2)n2cc(COC(=O)NC3c4ccccc4C[C@H]3O)nn2)cc1 (single isomer, unassigned)",
    "Parameter Measured": "IC50",
    "Meas Value": 6
  },
  {
    "Compound": "COc1ccc(S(=O)(=O)N(CC(C)C)C[C@@H](O)[C@H](Cc2ccccc2)n2cc(CNC(=O)c3ccncc3)nn2)cc1",
    "Parameter Measured": "IC50",
    "Meas Value": 10
  },
  {
    "Compound": "COC(=O)[C@@H](NC(=O)OCc1cn([C@@H](Cc2ccccc2)[C@H](O)CN(CC(C)C)S(=O)(=O)c2ccc(OC)cc2)nn1)c1ccccc1",
    "Parameter Measured": "IC50",
    "Meas Value": 10
  }
]

====

- Study System: Human immunodeficiency virus type 1 protease (Human immunodeficiency virus 1)

[
  {
    "Molecule": "COc1ccc(S(=O)(=O)N(CC(C)C)C[C@@H](O)C(Cc2ccccc2)n2cc(COC(=O)NC3c4ccccc4C[C@H]3O)nn2)cc1 (single isomer, unassigned)",
    "Ki": "1.7 nM"
  }
]
